Recorded values, source PubChem BioAssay AID624129.

# STUDY TARGET: UniProt P51684
# EXPERIMENTAL PROTOCOL: potency against CXCR6 with APJ panel – cell-based, beta-arrestin, DiscoveRx, uHTS hits, dose response (AID 624129)
# CONDITION CONTEXT: CXCR6 beta-arrestin (DiscoveRx) antagonist cell assay, CCR6, dose range 1
PARAMETER MEASURED: pIC50
Reminder that pIC50 is minus the log10 of a molar concentration.

// below: answered compounds
O=S(=O)(Nc1cccc2cccnc12)c1ccccc1 = 5.12
CC(Oc1cccc(Cl)c1)C(=O)Nc1nc(-c2ccccn2)cs1 (stereo not drawn) = 5.17
O=[N+]([O-])c1c(Nc2ccccc2O)cc(Cl)c2nonc12 = 4.93
CN(c1ccccc1)S(=O)(=O)c1ccc(NC(=O)c2nc(S(C)(=O)=O)ncc2Cl)cc1 = 5.20

Incoming: What measured pIC50 goes with CC(=O)Nc1ccc(Sc2ccc([N+](=O)[O-])o2)cc1 ?
Outgoing: 5.04

Incoming: Requested field: pIC50. Item: O=C(Nc1nccs1)c1sc2cc(Cl)ccc2c1Cl
Outgoing: 5.02

Incoming: # pIC50 lookup, item Oc1cccc2ccc(/C=C/c3cccs3)nc12
Outgoing: 5.40
